This collection of values is drawn from patent US20240360228A1.

# Experimental Target: T1, human CCR8 (human, UniProt P51685 1-355)
# T1 construct: Native CCR8 on human PBMC (CCR8+ CD3+ or CCR8+ CD4+ lymphocytes); also called chemokine (C-C motif) receptor 8
# T1 sequence (P51685 whole entry): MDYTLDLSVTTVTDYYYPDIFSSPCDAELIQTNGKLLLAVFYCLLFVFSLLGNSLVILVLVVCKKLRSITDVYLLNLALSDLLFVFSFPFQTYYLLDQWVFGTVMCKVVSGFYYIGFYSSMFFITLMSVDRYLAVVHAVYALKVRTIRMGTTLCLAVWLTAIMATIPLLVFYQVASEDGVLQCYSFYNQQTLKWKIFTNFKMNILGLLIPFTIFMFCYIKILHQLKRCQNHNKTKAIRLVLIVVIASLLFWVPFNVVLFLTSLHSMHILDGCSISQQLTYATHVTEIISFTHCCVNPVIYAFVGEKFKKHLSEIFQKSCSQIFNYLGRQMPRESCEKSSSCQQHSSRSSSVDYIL
# Assay Comment: flow blocking, PBMC CCR8+CD3+; competitor PE-AB15
# Method: For blocking studies, 100 μL of the cell suspension were incubated with 10 μg purified isotype control, AB1, AB2, AB3, AB4, AB5, AB8, AB9, AB10, AB11, AB12, AB13, AB14, AB15, and Commercial ABI antibodies, or isotype control, as blocking agents. […]
Property Measured: MFI
When you answer, write just the number.

Record excerpt, results attached:
AB5 (antibody, V domains shown, Hybridoma monoclonal; Same VH/VL entries as AB6; also called antibody 5; clone 5) VH: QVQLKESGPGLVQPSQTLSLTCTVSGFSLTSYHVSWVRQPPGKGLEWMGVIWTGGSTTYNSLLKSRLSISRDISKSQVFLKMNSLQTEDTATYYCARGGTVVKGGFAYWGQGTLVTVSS VL: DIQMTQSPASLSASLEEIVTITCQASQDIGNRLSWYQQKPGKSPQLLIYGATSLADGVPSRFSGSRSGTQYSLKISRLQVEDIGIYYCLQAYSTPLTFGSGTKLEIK: 873
AB8 (antibody, V domains shown, Hybridoma monoclonal; also called antibody 8; clone 8) VH: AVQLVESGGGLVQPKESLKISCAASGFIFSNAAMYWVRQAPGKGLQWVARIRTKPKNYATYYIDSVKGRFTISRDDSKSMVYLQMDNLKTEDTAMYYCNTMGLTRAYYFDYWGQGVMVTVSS VL: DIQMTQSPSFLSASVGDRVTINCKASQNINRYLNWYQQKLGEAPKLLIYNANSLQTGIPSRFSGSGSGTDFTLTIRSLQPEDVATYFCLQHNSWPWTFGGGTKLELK: 471

Shift focus to the following entry.
Consider AB13 (antibody, V domains shown, Hybridoma monoclonal; also called antibody 13; clone 13) VH: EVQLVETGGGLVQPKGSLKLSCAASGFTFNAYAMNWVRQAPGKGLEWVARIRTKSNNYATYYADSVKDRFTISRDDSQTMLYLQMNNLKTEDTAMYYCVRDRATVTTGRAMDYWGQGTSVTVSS VL: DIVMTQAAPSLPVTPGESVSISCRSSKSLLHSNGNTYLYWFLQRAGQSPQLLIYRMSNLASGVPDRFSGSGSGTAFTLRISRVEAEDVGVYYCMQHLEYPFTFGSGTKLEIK . Its measured MFI is 601
